system: K4 kissing-loop RNA reporter; test: apparent KD of K4 kissing-loop reporter; higher = weaker reporter binding; settings: Eterna round: R107; input ligand: none
Label MET for high-side apparent KD of K4 kissing-loop reporter (at or above 200 nM) and NOT MET for low-side apparent KD of K4 kissing-loop reporter (below it).

UGACUGGAUGGAAGGAGCGCUAAACUCCUAGUGAUGUUAGGGACAUGAGGCAAAGCCUUGAAGCAGGUAGGUCGCCAUCUAGUCU [FiskerMod 27 - Jieux - Same State - Arginine B] :: MET
AAGUGAUGUUGUAGUGAUGUUGUGAUGUUGCAGGAUAUAUAGUGAUGUAGAAGGGUAAGUACUGUUUUUUUUUUUGAGUGAUGUU [ookooyzrmullin] :: NOT MET
AGCUCAGAGUGACUCGAUAAGAGUCACAAACGAGGACCGGUACGGCCGCCACUCGAAAUAAAGAGAGUGAUGUUCUCGCUGAGCA [FiskerMod 9 - Jieux - Same State Tryptophan A] :: MET

Please tell me: is the sequence AGACUUCACCGAAGGAGCGACGUAGCCUAGUGAUGUUAGGCACGAGAGAAAUCUCGUAUACGUCAGGUAGGUCGCGGUGAAGUCA [Omei KL Arginine B SS C v1] at or over 200 nM in terms of apparent KD of K4 kissing-loop reporter?
NOT MET

Please tell me: is the sequence GGACCUCAGUGAUGUUGAGGUAACACUGAUACCAGCGACUUAAUUCGCCCUUGGCAGCAGUCCACCGAGGUAUCUGAUUAGGUCU [#23 K4 Theophylline A Exclusion] at or over 200 nM in terms of apparent KD of K4 kissing-loop reporter?
MET

Please tell me: is the sequence UGCCGGAAGGCGAGCGCUCCCACUCCGGAAGGAGCGCCCGUAAGGGCAGGUAGGUCGCCGGAGUGAUGUUCCGGUGGAGGGCUCG [#2 Exclusion - Arginine A Attempt #22 (Inspired by Omei)] at or over 200 nM in terms of apparent KD of K4 kissing-loop reporter?
NOT MET

Please tell me: is the sequence UCGCGUAAUGGAAGGAGCGGUGCCAGUGAUGUUGGAUACUGCGUGUAUUAGGUCGGAGCGCACCAGGUAGGUCGCCAUUUGGUGG [Tigedies] at or over 200 nM in terms of apparent KD of K4 kissing-loop reporter?
MET

Please tell me: is the sequence CGCGAGUCCUUUCAGUGAGUGAUGUUUACGCGAGGACCGGUACGGCCGCCACUCGAUGGUAUACCAAGACAUCAGCAGAUUGUCU [theeternabot_exclusion_KL_Trp_A_18] at or over 200 nM in terms of apparent KD of K4 kissing-loop reporter?
MET

----------
system: K4 kissing-loop RNA reporter; assay: apparent KD of K4 kissing-loop reporter; higher = weaker reporter binding; conditions: Eterna round: R107; input ligand: FMN 200 uM;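 also: bound reporter read as fluorescence of individual clusters on recovered sequencing chips by microscopy, with normalized cluster intensities fitted with a binding model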
Please respond with reported apparent KD of K4 kissing-loop reporter for every item in the list.
Numbers only, in nM.

AAAAUAAACCAGUGAUGUUGGUGUCCGGAUACCAGCGAUAAUCAUCGCCCUUGGCAGCCGCGGACGUACAAAAUAAGUACGUCCU [MatMod 13 - Jieux - Same State - Theophylline A] :: 457
UGCAUGCUUAGAGUGAUGUUCUAAGAUGAUACCAGUGCUUUUUUGCACCCUUGGCAGCGUCUGAUUGCAUGCACGUCGAAAGACG :: 288
UUAGAGAUCUCAGGAUAUCAGUGAUGUUGGUUGCCAGAUCUGAGAUAGAAUUCUAUCUCAGAUCAAUGAGAAGGGAGAUCUCAUU [AK4 Exc FMN B] :: 501

Now let's try a different one.
Can you share its apparent KD of K4 kissing-loop reporter? I mean this sequence: CCAGAAUGAUGAAGAUGAUAAAUUACUGAAGGAGCGCAUAUAGUUGCAGGUAGGUCGCGGUGAAUAAGUAUAGUGAUGUUAUACC [SSArgA.Ac]
265
